measurementDescription: Cytotoxicity, sulforhodamine B assay, Molt-4
Format: cell-based, human
conditionsUsed: human, Molt-4 cells (blood), CC50, Molt-4, Glucose media, day 11
readoutType: CC50 at 11 days (µM)
Just the number in µM, nothing appended.

[ask] Please list CC50 at 11 days recorded for the molecule Nc1ccn([C@H]2CC[C@@H](CO)O2)c(=O)n1
[reply] 8.7

---

Reported CC50 at 11 days by item:
measurementDescription: Cytotoxicity, sulforhodamine B assay, iCell cardiomyocytes
Format: cell-based
conditionsUsed: human, iCell cardiomyocytes (heart)

{"compound": "Nc1ccn([C@H]2CC[C@@H](CO)O2)c(=O)n1 [ddC, 2′,3′-Dideoxycytidine]", "value": "> 250 µM"}

Here is another compound to look at.
[ask] Please list CC50 at 11 days recorded for the compound CC(C)OC(=O)[C@H](C)N[P@](=O)(OC[C@H]1O[C@@H](n2ccc(=O)[nH]c2=O)[C@](C)(F)[C@@H]1O)Oc1ccccc1 [SOF, Sofosbuvir]
[reply] > 250 µM

---

systemUnderTest: human mitochondrial DNA polymerase γ (Pol-γ exo-mutant) (Homo sapiens, UniProt P54098, D198A/E200A)
Sequence (P54098 26-1239 D198A/E200A limits assumed): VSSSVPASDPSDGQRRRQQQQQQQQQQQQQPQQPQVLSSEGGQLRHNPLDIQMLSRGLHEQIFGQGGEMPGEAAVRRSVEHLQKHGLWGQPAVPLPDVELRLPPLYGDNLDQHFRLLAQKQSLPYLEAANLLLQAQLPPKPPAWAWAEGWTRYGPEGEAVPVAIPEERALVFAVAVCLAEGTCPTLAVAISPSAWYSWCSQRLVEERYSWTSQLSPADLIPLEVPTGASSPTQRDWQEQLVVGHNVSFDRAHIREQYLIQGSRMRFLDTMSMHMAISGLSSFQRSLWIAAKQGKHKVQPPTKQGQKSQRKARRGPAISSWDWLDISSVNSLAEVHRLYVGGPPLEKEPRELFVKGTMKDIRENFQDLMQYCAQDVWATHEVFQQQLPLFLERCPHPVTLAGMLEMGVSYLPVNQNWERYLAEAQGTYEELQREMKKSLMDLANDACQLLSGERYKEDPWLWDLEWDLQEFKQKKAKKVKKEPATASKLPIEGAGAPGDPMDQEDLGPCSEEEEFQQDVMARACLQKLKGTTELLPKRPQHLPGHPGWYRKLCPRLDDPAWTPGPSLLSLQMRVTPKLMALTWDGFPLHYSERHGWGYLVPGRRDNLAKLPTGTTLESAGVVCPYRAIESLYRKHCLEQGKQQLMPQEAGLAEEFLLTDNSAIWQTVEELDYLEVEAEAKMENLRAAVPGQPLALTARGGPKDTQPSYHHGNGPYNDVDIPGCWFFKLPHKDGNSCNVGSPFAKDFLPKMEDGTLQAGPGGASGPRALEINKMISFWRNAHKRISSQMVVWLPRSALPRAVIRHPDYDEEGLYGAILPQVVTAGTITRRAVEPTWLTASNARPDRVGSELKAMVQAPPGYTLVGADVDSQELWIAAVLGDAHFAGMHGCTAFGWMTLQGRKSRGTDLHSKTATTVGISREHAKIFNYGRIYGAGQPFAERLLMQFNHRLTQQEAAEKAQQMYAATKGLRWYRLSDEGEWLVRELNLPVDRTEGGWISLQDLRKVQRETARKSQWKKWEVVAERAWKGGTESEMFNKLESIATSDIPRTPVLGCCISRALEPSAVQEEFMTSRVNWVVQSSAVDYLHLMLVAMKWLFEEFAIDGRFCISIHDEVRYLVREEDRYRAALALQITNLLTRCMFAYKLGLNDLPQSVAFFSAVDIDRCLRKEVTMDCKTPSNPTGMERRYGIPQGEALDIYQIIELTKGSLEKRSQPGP
measurementDescription: Pol-γ primer extension
Assay type: biochemical
conditionsUsed: Native:F ratio 1:100
Marks after values point to notes of the source that are not given here.
Reported % Native product by item:

Consider the following illustrative entries.
{"molecule": "Nc1ncnc2c1ncn2[C@@H]1O[C@H](COP(=O)(O)OP(=O)(O)OP(=O)(O)O)[C@@H](O)[C@H]1F [2′-F-ATP]", "readoutType": "% Native product", "value": "79.8^b %"}
{"molecule": "O=c1ccn([C@@H]2O[C@H](COP(=O)(O)OP(=O)(O)OP(=O)(O)O)[C@@H](O)[C@H]2F)c(=O)[nH]1 [2′-F-UTP]", "readoutType": "% Native product", "value": "80.1^b %"}

[ask] Please list % Native product recorded for the molecule Nc1ccn([C@@H]2O[C@H](COP(=O)(O)OP(=O)(O)OP(=O)(O)O)[C@@H](O)[C@H]2F)c(=O)n1 [2′-F-CTP]
[reply] 64.5^b %

[ask] Please list % Native product recorded for the molecule Nc1nc2c(ncn2[C@@H]2O[C@H](COP(=O)(O)OP(=O)(O)OP(=O)(O)O)[C@@H](O)[C@H]2F)c(=O)[nH]1 [2′-F-GTP]
[reply] 56.0^b %

Measured values drawn from paper PMC6468299 for this set.
